target: Calmodulin-1 (Homo sapiens)
test-method-notes: calcium-bound CALM1 binders on microarrays, profiling panel, artefact control for SMM control-protein annotation, biochemical, small-molecule microarray, Cy5-labelled CALM1, plus calcium (AID 1112);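 also: score merges spot fluorescence with signal to noise from triplicate slides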
assay-context: Cy5-CALM1 binding fluorescence, higher = more signal
Measured composite z-score determines class: bottom: < -0.05; middle: ≥ -0.05 and < 0.5; top: ≥ 0.5

Solved cases below.
COC(=O)[C@@]1(Cc2ccc(OC)cc2)[C@H]2c3cc(C(=O)N4CCCC4)n(Cc4ccc(O)c(OC)c4)c3C[C@H]2CN1C(=O)c1ccccc1 = top
OCCCC1=CC(c2cccs2)N(Cc2cc3c(cc2Br)OCO3)CC1 (centres undefined) = bottom

**Query** # bin label for `COc1cc(COC(C)=O)ccc1OC(C)=O`
**Result** bottom
